experiment: Retention of arrayed peptides on a polypropylene sheet after successive washes; format: physicochemical; settings: Test array; after first wash (1 M NaCl, 10 mM tris-HCl pH 8.0, one minute)
No end group written: not given here. TAMRA = rhodamine dye label at the N-terminus (mixture of 5- and 6-isomers)
# Average fluorescence values compiled below

These recorded examples may help you get a feel for the data.
[
  {
    "Substance": "TAMRA-F-G-F-S-F-A-F-D-F-G-F ({TAMRA}-FGFSFAFDFGF) [Peptide P1-1]",
    "Average fluorescence": "157,624,537"
  },
  {
    "Substance": "TAMRA-F-G-F-G-F-G-F-G-F-G-F-S-F-A-F-D-F-G-F ({TAMRA}-FGFGFGFGFGFSFAFDFGF) [Peptide P1-5]",
    "Average fluorescence": "201,991,732"
  },
  {
    "Substance": "TAMRA-F-G-F-G-F-G-F-G-F-S-F-A-F-D-F-G-F ({TAMRA}-FGFGFGFGFSFAFDFGF) [Peptide P1-4]",
    "Average fluorescence": "189,823,310"
  },
  {
    "Substance": "TAMRA-F-G-F-G-F-S-F-A-F-D-F-G-F ({TAMRA}-FGFGFSFAFDFGF) [Peptide P1-2]",
    "Average fluorescence": "170,078,218"
  }
]

Now turn to the next substance.
Prompt line: What value of Average fluorescence has been reported for the following substance? TAMRA-F-G-F-G-F-G-F-S-F-A-F-D-F-G-F ({TAMRA}-FGFGFGFSFAFDFGF) [Peptide P1-3]
Response line: 171,197,973

###

# Average fluorescence values compiled below
assay: Retention of arrayed peptides on a polypropylene sheet after successive washes; type: physicochemical; conditions: Control array (not washed); scan after second wash
No end group written: not given here. TAMRA = rhodamine dye label at the N-terminus (mixture of 5- and 6-isomers)

These recorded examples may help you get a feel for the data.
[
  {
    "Substance": "TAMRA-F-G-F-S-F-A-F-D-F-G-F ({TAMRA}-FGFSFAFDFGF) [Peptide P1-1]",
    "Measure Name": "Average fluorescence",
    "Result": "225,863,933"
  },
  {
    "Substance": "TAMRA-F-G-F-G-F-G-F-G-F-G-F-S-F-A-F-D-F-G-F ({TAMRA}-FGFGFGFGFGFSFAFDFGF) [Peptide P1-5]",
    "Measure Name": "Average fluorescence",
    "Result": "190,847,825"
  },
  {
    "Substance": "TAMRA-F-G-F-G-F-G-F-G-F-S-F-A-F-D-F-G-F ({TAMRA}-FGFGFGFGFSFAFDFGF) [Peptide P1-4]",
    "Measure Name": "Average fluorescence",
    "Result": "179,942,418"
  },
  {
    "Substance": "TAMRA-F-G-F-G-F-S-F-A-F-D-F-G-F ({TAMRA}-FGFGFSFAFDFGF) [Peptide P1-2]",
    "Measure Name": "Average fluorescence",
    "Result": "196,080,891"
  }
]

Now turn to the next substance.
Prompt line: What value of Average fluorescence has been reported for the following substance? TAMRA-F-G-F-G-F-G-F-S-F-A-F-D-F-G-F ({TAMRA}-FGFGFGFSFAFDFGF) [Peptide P1-3]
Response line: 187,310,655

Cited source: patent US20100105567A1
